assay: cytotoxicity in HPDE-C7 cells, cell-based, fluorescence, HTS (AID 430); conditions: HPDE-C7 pancreatic duct cells viability, at 10 µM, hits give high values;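 note: cells exposed to compound for 48 hours before viability readout; 0% = vehicle and 100% = reference cytotoxic drug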
Hit rate of the full screen: of about 63,000 compounds, about 1,100 (1.7%) were called active. The sample as a whole holds a higher share of actives than the screen did. Entries with a potency or affinity are not part of this list.
Endpoint label: cytotoxicity (%)
Give bare numbers, in %.

Solved entries (count: 5):
Mol smiles	cytotoxicity / %
CC(=O)c1c(C)[nH]c(C(=O)OCC(=O)Nc2cc(C)on2)c1C	7.8
O=c1[nH]c(NCCCO)nc2c1C1(CCCC1)Cc1ccccc1-2	23.9
c1ccc(OCc2nn3c(Cn4nnc5ccccc54)nnc3s2)cc1	-15.5
COc1ccc(-c2noc(-c3cc(Cl)ccc3Cl)n2)cc1OC	-2.3
O=c1c2ccccc2c(C=NCCO)c(O)n1-c1ccccc1	1.2

For each of the compounds below, state cytotoxicity.
1. O=C(CN1CCC(NC(=O)c2ccc(F)cc2)CC1)NCc1ccccc1F
2. CC(=O)N1CCN=C1SCc1ccc(Br)cc1

-5.6
1.6

* * *

Give measured cytotoxicity for each item. Keep answers brief.
test: cytotoxicity in HPDE-C7 cells, cell-based, fluorescence, HTS (AID 430); details: HPDE-C7 pancreatic duct cells viability, at 10 µM, hits give high values;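 note: cells exposed to compound for 48 hours before viability readout; 0% = vehicle and 100% = reference cytotoxic drug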
In all, about 63,000 compounds went through this assay and about 1,100 (1.7%) were called active. The full list was thinned out, with actives kept by preference. Measured potencies and affinities stand elsewhere.
One number for each entry, in %.

Previously resolved entries follow.
Compound	Endpoint label	Value reported
O=C(Nc1nnc(-c2cccs2)o1)c1cccc(Oc2ccccc2)c1	cytotoxicity	50.4
O=c1c2cccc3c2c(nn1CN1CCOCC1)-c1ccccc1-3	cytotoxicity	53
COc1cc(-c2nnc3sc(-c4cccs4)nn23)cc(OC)c1OC	cytotoxicity	75.8
COc1ccccc1-c1nn2c(-c3ccccc3Cl)nnc2s1	cytotoxicity	-14.1
COc1ccc(C(C#N)N2CCCCCC2)cc1OC (centres undefined)	cytotoxicity	2.4
Cc1ccc(-c2nn(CC(=O)NCCN3CCOCC3)c(=O)c3ccccc23)cc1	cytotoxicity	0.5
O=C(Nc1nnc(-c2cccs2)o1)c1cccc(C(F)(F)F)c1	cytotoxicity	78.7
O=C(Cn1nc(-c2ccccc2)c2ccccc2c1=O)NCCN1CCOCC1	cytotoxicity	-11.2
Cc1ccc(NS(=O)(=O)c2ccc(OCC(=O)NCc3ccco3)cc2)cc1	cytotoxicity	6.8
COc1ccc(CN(C2CCCC2)S(=O)(=O)c2ccc(-n3cnnn3)cc2)cc1OC	cytotoxicity	-39.1

Batch lookup, cytotoxicity per entry.
1. COc1ccc(-c2nnc3sc(-c4c(OC)cccc4OC)nn23)cc1
2. COc1cccc(-c2nc(N3CCCCC3)c3ccccc3n2)c1O
3. COc1cccc(-c2nc(N3CCCCC3C)c3ccccc3n2)c1O (centres undefined)
4. COc1ccccc1-c1nnc2sc(-c3cc4ccccc4o3)nn12
5. COc1cccc(OC)c1-c1nn2c(-c3cc(-c4ccccc4)n[nH]3)nnc2s1
6. O=C(Nc1ccc(Nc2ccccc2)cc1)c1ccc(Br)o1
7. CCOC(=O)Cn1cnc2c(C#N)c3n(c2c1=O)CCCCC3
8. COCCSc1ccccc1C(=O)Nc1nncs1

10.9
-7.5
53
56.2
68.9
76.8
-8.7
-5.4

Batch request: cytotoxicity per item, same order as input.
1. COc1cc(-c2csc(N3CCOCC3)n2)cc(OC)c1OC
2. O=C(Nc1ccc(S(=O)(=O)NCCc2ccccc2)cc1)c1ccc(Br)o1
3. COc1ccc(-c2nnc3sc(-c4cccs4)nn23)cc1OC
4. Cn1nc(-c2ccc(Cl)cc2)c2cc(C(=O)NCCCN3CCCC3)sc21

4.3
12
20.2
69.7

Value sought for every listed compound: cytotoxicity.
1. CN1CCN(C2=C(Cl)C(=O)N(C3CCCCC3)C2=O)CC1
2. COc1cccc(-c2nnc3sc(-c4ccco4)nn23)c1

1: -8; 2: 58
